target: 5-hydroxytryptamine receptor 4 (Rattus norvegicus, UniProt Q62758); assay: Antagonism at 5HT4 receptor in rat tunica muscularis mucosa; type: functional, tissue-based; details: read-out: pA2 (converted)
Sequence (Q62758 whole entry): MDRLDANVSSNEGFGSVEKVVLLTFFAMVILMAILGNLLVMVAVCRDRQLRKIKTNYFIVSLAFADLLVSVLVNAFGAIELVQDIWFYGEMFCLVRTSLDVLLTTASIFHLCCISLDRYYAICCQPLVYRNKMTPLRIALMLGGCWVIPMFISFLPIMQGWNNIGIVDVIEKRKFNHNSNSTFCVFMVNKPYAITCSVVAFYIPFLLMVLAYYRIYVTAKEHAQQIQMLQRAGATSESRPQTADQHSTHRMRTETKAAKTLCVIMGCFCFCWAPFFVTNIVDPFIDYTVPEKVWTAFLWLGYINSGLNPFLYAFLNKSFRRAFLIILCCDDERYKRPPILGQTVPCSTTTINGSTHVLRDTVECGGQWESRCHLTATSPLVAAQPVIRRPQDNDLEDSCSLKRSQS
Labelling field: enter MET if recorded Kb is less than 7 nM. Enter NOT MET if it equals or exceeds that cut-off.

O=C(OC[C@@H]1CCN2CCC[C@@H]12)c1[nH]nc2ccccc12 (single isomer, unassigned): MET
O=C(NC[C@@H]1CCN2CCC[C@@H]12)c1cccn2ccnc12: NOT MET
O=C(NC[C@@H]1CCN2CCC[C@@H]12)c1cc(Cl)cn2ccnc12: NOT MET
CC1(C)C(=O)N(C(=O)NC[C@@H]2CCN3CCC[C@@H]23)c2ccccc21: NOT MET
COc1ccc2[nH]cc(C(=O)OC[C@@H]3CCN4CCC[C@@H]34)c2c1: NOT MET

stdin: Item `O=C(OC[C@@H]1CCN2CCC[C@@H]12)c1c[nH]c2ccc(F)cc12` : Kb beneath 7 nM, strictly?
stdout: MET

stdin: Item `O=C(OC[C@@H]1CCN2CCC[C@@H]12)c1c[nH]c2ccccc12` : Kb beneath 7 nM, strictly?
stdout: MET

stdin: Item `O=C(OC[C@@H]1CCN2CCC[C@@H]12)c1cc(Cl)cn2ccnc12` : Kb beneath 7 nM, strictly?
stdout: NOT MET

stdin: Item Cn1nc(C(=O)OC[C@@H]2CCN3CCC[C@@H]23)c2ccccc21 (single isomer, unassigned) : Kb beneath 7 nM, strictly?
stdout: MET

stdin: Item CCc1nc(C(=O)NC[C@@H]2CCN3CCC[C@@H]23)c2ccccn12 (relative stereo) : Kb beneath 7 nM, strictly?
stdout: NOT MET

stdin: Item `Cc1cnc2c(C(=O)NC[C@@H]3CCN4CCC[C@@H]34)cc(Cl)cn12` : Kb beneath 7 nM, strictly?
stdout: NOT MET
